# ASSAY_NAME: Tissue distribution in male rats after single oral dose of 75 mg/kg
# Type: in vivo, male Sprague Dawley rats
# PROTOCOL_CONDITIONS: male, Sprague Dawley, rat, lung, po, 75 mg/kg, male rats; 75 mg/kg oral; Lung; read-out: Cmax Ratio (Tissue/Plasma)
# Protocol: Following a single oral administration of unlabelled Compound 1 to rats, the highest distribution was to the liver followed by lung, pancreas and brain with tissue-to-plasma ratios of 0.73, 0.19, 0.13 and 0.02, respectively, at one hour following oral administration of 75 mg/kg. […] Although the distribution to the lung is low relative to plasma, the concentrations measured in lung at low and moderate doses are predicted to be efficacious.
PROPERTY_MEASURED: Kp

smiles_repr=Cc1ccc(NC(=O)C2(c3ccc4c(c3)OC(F)(F)O4)CC2)nc1-c1cccc(C(=O)O)c1 observed_value=0.15

====

# ASSAY_NAME: Toxicokinetics in 14-day oral toxicity study in dogs
# PROTOCOL_CONDITIONS: female, beagle, dog, in vivo, 200 mg/kg/day, Study Day 1, Female, read-out: Cmax
PROPERTY_MEASURED: Cmax (µg/mL)

smiles_repr=Cc1ccc(NC(=O)C2(c3ccc4c(c3)OC(F)(F)O4)CC2)nc1-c1cccc(C(=O)O)c1 observed_value=56

====

# ASSAY_NAME: Toxicokinetics in 14-day oral toxicity study in rats
# PROTOCOL_CONDITIONS: female, Sprague Dawley, rat, in vivo, 600 mg/kg/day, Study Day 1, Female, read-out: Cmax
PROPERTY_MEASURED: Cmax (µg/mL)

molecule="Cc1ccc(NC(=O)C2(c3ccc4c(c3)OC(F)(F)O4)CC2)nc1-c1cccc(C(=O)O)c1 [Compound 1]" reading_unit=µg/mL observed_value=273

====

# ASSAY_NAME: Tissue distribution in male rats after single oral dose of 75 mg/kg
# Format: in vivo, male Sprague Dawley rats
# PROTOCOL_CONDITIONS: male, Sprague Dawley, rat, lung, po, 75 mg/kg, rats; 75 mg/kg oral; 1 to 48 hours after administration; read-out: tissue-to-plasma concentration ratios, lung
PROPERTY_MEASURED: Kp

smiles_repr=Cc1ccc(NC(=O)C2(c3ccc4c(c3)OC(F)(F)O4)CC2)nc1-c1cccc(C(=O)O)c1 observed_value="0.15 to 0.35"

====

# ASSAY_NAME: Toxicokinetics in acute oral toxicity study in mice
# Type: in vivo
# PROTOCOL_CONDITIONS: CD-1, mouse, plasma, 2000 mg/kg, Female
PROPERTY_MEASURED: Cmax (µg/mL)

smiles_repr=Cc1ccc(NC(=O)C2(c3ccc4c(c3)OC(F)(F)O4)CC2)nc1-c1cccc(C(=O)O)c1 observed_value=325

====

# ASSAY_NAME: in vivo
# Parameters: species or system dogs
# PROTOCOL_CONDITIONS: both sexes, dog
PROPERTY_MEASURED: NOAEL at 7 days (mg/kg/day)

smiles_repr=Cc1ccc(NC(=O)C2(c3ccc4c(c3)OC(F)(F)O4)CC2)nc1-c1cccc(C(=O)O)c1 observed_value=100

====

# ASSAY_NAME: Toxicokinetics in acute oral toxicity study in rats
# Assay type: in vivo
# PROTOCOL_CONDITIONS: rat, plasma, po, 2000 mg/kg, Female, read-out: AUC0-24 h
# Description: Compound 1 was also well absorbed in rats with time to reach maximum plasma concentrations(tmax) ranging from 4.0 to 24.0 hr.
PROPERTY_MEASURED: AUC(0-t) (µg·h/mL)

compound="Cc1ccc(NC(=O)C2(c3ccc4c(c3)OC(F)(F)O4)CC2)nc1-c1cccc(C(=O)O)c1 [Compound 1]" property_measured=AUC(0-t) observed_value=6750

====

# ASSAY_NAME: Single oral pharmacokinetics of the free form in suspension in male rats
# Assay type: in vivo, male Sprague Dawley rats
# PROTOCOL_CONDITIONS: male, Sprague Dawley, rat, plasma; rats; across the 1 to 600 mg/kg oral dose range
PROPERTY_MEASURED: bioavailability

compound="Cc1ccc(NC(=O)C2(c3ccc4c(c3)OC(F)(F)O4)CC2)nc1-c1cccc(C(=O)O)c1 [Compound 1]" property_measured=bioavailability observed_value="47 to 100%"

====

# ASSAY_NAME: Single oral pharmacokinetics of the free form in suspension in male rats
# Type: in vivo, male Sprague Dawley rats
# PROTOCOL_CONDITIONS: male, Sprague Dawley, rat, plasma, po, 30 mg/kg, male rats; free form; 30 mg/kg; read-out: t1/2 (converted)
PROPERTY_MEASURED: half-life (h)

compound="Cc1ccc(NC(=O)C2(c3ccc4c(c3)OC(F)(F)O4)CC2)nc1-c1cccc(C(=O)O)c1 [Compound 1]" property_measured=half-life observed_value=6.83

====

# ASSAY_NAME: Tissue distribution in male rats after single oral dose of 75 mg/kg
# Assay type: in vivo, male Sprague Dawley rats
# PROTOCOL_CONDITIONS: male, Sprague Dawley, rat, lung, po, 75 mg/kg, male rats; 75 mg/kg oral; 12 hr; read-out: Tissue/Plasma Ratio, Lung
PROPERTY_MEASURED: Kp at 12 hr

smiles_repr=Cc1ccc(NC(=O)C2(c3ccc4c(c3)OC(F)(F)O4)CC2)nc1-c1cccc(C(=O)O)c1 property_measured="Kp at 12 hr" observed_value=0.21

====

# ASSAY_NAME: in vivo
# PROTOCOL_CONDITIONS: rat, po
PROPERTY_MEASURED: NOAEL at 14 days (mg/kg/day)

compound="Cc1ccc(NC(=O)C2(c3ccc4c(c3)OC(F)(F)O4)CC2)nc1-c1cccc(C(=O)O)c1 [Compound 1]" property_measured="NOAEL at 14 days" observed_value=600

====

# ASSAY_NAME: in vivo
# PROTOCOL_CONDITIONS: male, beagle, dog, 200 mg/kg
PROPERTY_MEASURED: Cmax

molecule="Cc1ccc(NC(=O)C2(c3ccc4c(c3)OC(F)(F)O4)CC2)nc1-c1cccc(C(=O)O)c1 [Compound 1]" property_measured=Cmax observed_value="52 µg/mL"

====

# ASSAY_NAME: Toxicokinetics in 14-day oral toxicity study in rats
# PROTOCOL_CONDITIONS: female, Sprague Dawley, rat, in vivo, 600 mg/kg/day, Study Day 1, Female, read-out: AUC0-24 hr
PROPERTY_MEASURED: AUC(0-t) (µg·h/mL)

smiles_repr=Cc1ccc(NC(=O)C2(c3ccc4c(c3)OC(F)(F)O4)CC2)nc1-c1cccc(C(=O)O)c1 observed_value=4430

====

# ASSAY_NAME: Tissue distribution in male rats after single oral dose of 75 mg/kg
# Assay type: in vivo, male Sprague Dawley rats
# PROTOCOL_CONDITIONS: male, Sprague Dawley, rat, liver, po, 75 mg/kg, male rats; 75 mg/kg oral; 12 hr; read-out: Tissue/Plasma Ratio, Liver
PROPERTY_MEASURED: Kp at 12 hr

smiles_repr=Cc1ccc(NC(=O)C2(c3ccc4c(c3)OC(F)(F)O4)CC2)nc1-c1cccc(C(=O)O)c1 observed_value=1.06

====

# ASSAY_NAME: Tissue distribution in male rats after single oral dose of 75 mg/kg
# Format: in vivo, male Sprague Dawley rats
# PROTOCOL_CONDITIONS: Sprague Dawley, rat; male rats; 75 mg/kg oral; Pancreas
PROPERTY_MEASURED: Cmax (ng/mL)

smiles_repr=Cc1ccc(NC(=O)C2(c3ccc4c(c3)OC(F)(F)O4)CC2)nc1-c1cccc(C(=O)O)c1 observed_value=6830

====

# ASSAY_NAME: Tissue distribution in male rats after single oral dose of 75 mg/kg
# Type: in vivo, male Sprague Dawley rats
# PROTOCOL_CONDITIONS: Sprague Dawley, rat; male rats; 75 mg/kg oral; Lung
PROPERTY_MEASURED: Cmax (ng/mL)

smiles_repr=Cc1ccc(NC(=O)C2(c3ccc4c(c3)OC(F)(F)O4)CC2)nc1-c1cccc(C(=O)O)c1 reading_unit=ng/mL observed_value=9140

====

# ASSAY_NAME: Toxicokinetics in 14-day oral toxicity study in rats
# PROTOCOL_CONDITIONS: male, Sprague Dawley, rat, in vivo, 600 mg/kg/day, Study Day 1, Male, read-out: Cmax
# Excerpt: There were no major differences noted in TK parameters between males and females, or when comparing study Day 1 to study Day 14.
PROPERTY_MEASURED: Cmax (µg/mL)

compound="Cc1ccc(NC(=O)C2(c3ccc4c(c3)OC(F)(F)O4)CC2)nc1-c1cccc(C(=O)O)c1 [Compound 1]" property_measured=Cmax observed_value=164

====

# ASSAY_NAME: Toxicokinetics in acute oral toxicity study in mice
# Type: in vivo
# PROTOCOL_CONDITIONS: both sexes, mouse, plasma, 500 to 2000 mg/kg, read-out: time to reach maximum plasma concentrations (tmax)
PROPERTY_MEASURED: Tmax

smiles_repr=Cc1ccc(NC(=O)C2(c3ccc4c(c3)OC(F)(F)O4)CC2)nc1-c1cccc(C(=O)O)c1 property_measured=Tmax observed_value="0.5 to 2 h"
